Examples of compounds with documented Percent Effect follow.
# targetEntity: Aspartate--tRNA(Asp/Asn) ligase (Mycobacterium tuberculosis (strain ATCC 25618 / H37Rv)); note: in the data most compounds retested in dose-response had high values
# Sequence (whole entry): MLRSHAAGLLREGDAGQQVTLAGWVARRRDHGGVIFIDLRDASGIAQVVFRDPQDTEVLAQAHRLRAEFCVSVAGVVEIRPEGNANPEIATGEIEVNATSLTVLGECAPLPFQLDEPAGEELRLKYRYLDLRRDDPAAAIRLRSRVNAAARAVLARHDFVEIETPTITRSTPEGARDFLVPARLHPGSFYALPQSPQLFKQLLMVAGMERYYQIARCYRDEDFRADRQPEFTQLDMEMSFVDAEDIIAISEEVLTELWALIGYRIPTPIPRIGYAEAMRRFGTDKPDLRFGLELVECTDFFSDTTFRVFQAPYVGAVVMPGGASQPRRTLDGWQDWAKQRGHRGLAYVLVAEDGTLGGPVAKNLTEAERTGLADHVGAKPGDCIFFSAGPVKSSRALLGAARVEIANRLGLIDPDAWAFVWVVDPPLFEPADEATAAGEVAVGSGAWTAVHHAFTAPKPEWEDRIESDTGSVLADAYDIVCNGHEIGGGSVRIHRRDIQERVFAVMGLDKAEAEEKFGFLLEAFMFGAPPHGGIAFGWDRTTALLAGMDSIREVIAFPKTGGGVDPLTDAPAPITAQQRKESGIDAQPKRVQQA
# assayInfo: Assay for Asp RNA synthetase-1 from Mycobacterium tuberculosis
# Type: functional
# Set-up: scale not given: direction of the effect not stated beside the values
# statedConditions: 30 µM

compound	Percent Effect, %
Cn1cc(C(=O)NC2CCN(Cc3ccn(C)c(=O)c3)CC2)cn1	1.68
CCN(Cc1nc(C(C)C)no1)Cc1cccs1	0.386
Cc1nn(C)c(C)c1C1CCCN1Cc1noc(C2CC2)n1 (stereo unspecified)	6.1
O=C(CCOc1ccc(Cl)cc1)N1CCN(c2cnccn2)CC1	0.879
COCCn1cc2c(n1)C(CNCc1ccco1)OCC2 (stereo unspecified)	3
CC(C)N(C)Cc1nnc2n1CCN(Cc1ccncc1)CC2	3.87
Cc1cnn(Cc2cc(F)ccc2F)c1NC(=O)C1COCCO1 (stereo unspecified)	-0.287
CN(Cc1cccs1)C(=O)CS(=O)(=O)Cc1ccc(Cl)c(Cl)c1	3.86
CCc1cnc(CN(C(C)=O)C2CCN(CCc3cccs3)C2)o1 (stereo unspecified)	-1.49
Cn1c2c(ccc1=O)CC(NS(C)(=O)=O)CC2 (stereo unspecified)	-0.956
CN(C)C(=O)CN(C)C(=O)c1cnc(Cc2ccc(F)cc2)s1	-1.57
COc1ccc(S(=O)(=O)N2CCC(S(C)(=O)=O)CC2)cc1C	1.12
CC(NC(=O)NCCCn1ccnc1)c1ccc2c(c1)CCC(=O)N2 (stereo unspecified)	-3.85
Cc1cccc(-c2nc(C)nn2CC(=O)N(C)C2CC2)c1	-4.28
CC(C)c1cc(NC(=O)c2ccc(NC3CC3)nc2)[nH]n1	-1.67
Cc1cccc(CN2CC[C@H]3[C@H]2CCN3Cc2cnn(C)c2)n1	-3.89

###

# maps each entry to its Percent Effect
# targetEntity: Shiga toxin 2 (Escherichia coli O157:H7) (UniProt P09385+P09386)
# assayInfo: E. coli 0.157:H7 Shiga Toxin SOP - stx2 screening assay
# Type: functional
# Set-up: scale not given: direction of the effect not stated beside the values
# statedConditions: 30 µM
measuredProperty: Percent Effect

compound	targetEntity	result
O=C(CN1CCCC(Cn2cncn2)C1)NCc1ccco1 (centres undefined)	Shiga toxin 2 (Escherichia coli O157:H7) (UniProt P09385+P09386)	14.2%
O=C(Cn1nc(-c2cccs2)ccc1=O)N1CCCCCC1	Shiga toxin 2 (Escherichia coli O157:H7) (UniProt P09385+P09386)	-0.139%
COc1ccc(C(O)CNC(=O)Nc2cc(C)nn2C)cc1 (centres undefined)	Shiga toxin 2 (Escherichia coli O157:H7) (UniProt P09385+P09386)	26.8%
Cc1ccc(F)cc1S(=O)(=O)NCc1cccnc1N(C)C	Shiga toxin 2 (Escherichia coli O157:H7) (UniProt P09385+P09386)	-16.9%
Cc1cc(C)n(CC2CN(Cc3cccc(C(N)=O)c3)CCO2)n1 (centres undefined)	Shiga toxin 2 (Escherichia coli O157:H7) (UniProt P09385+P09386)	-5.62%
CCc1ccc(OCC(O)CN2CCN(S(C)(=O)=O)CC2)cc1 (centres undefined)	Shiga toxin 2 (Escherichia coli O157:H7) (UniProt P09385+P09386)	22.4%
CC(C(=O)NCCN1CCCCCC1)n1cncn1 (centres undefined)	Shiga toxin 2 (Escherichia coli O157:H7) (UniProt P09385+P09386)	-27.3%
Cc1ccccc1OCCC(=O)OC(C)C(=O)Nc1sccc1C(N)=O (centres undefined)	Shiga toxin 2 (Escherichia coli O157:H7) (UniProt P09385+P09386)	-38.1%
Cc1ccc(N(C)C2CCN(C(=O)CCc3ccco3)CC2)nn1	Shiga toxin 2 (Escherichia coli O157:H7) (UniProt P09385+P09386)	-5.22%
CCOc1cc(C)nc(N2CCN(C(=O)c3ccc[nH]3)CC2)n1	Shiga toxin 2 (Escherichia coli O157:H7) (UniProt P09385+P09386)	29.4%
Cc1cc(CN2CC[C@H]3C[C@H](C(=O)N4CCC(C)CC4)O[C@H]3C2)no1	Shiga toxin 2 (Escherichia coli O157:H7) (UniProt P09385+P09386)	0.444%
Cc1nc(-c2ccccc2)sc1C(=O)NCCNc1ncccn1	Shiga toxin 2 (Escherichia coli O157:H7) (UniProt P09385+P09386)	28.3%
CN(C)C(=O)Cc1nc(CN2CCOC(Cn3cccn3)C2)cs1 (centres undefined)	Shiga toxin 2 (Escherichia coli O157:H7) (UniProt P09385+P09386)	-20.8%
Cn1cnc(S(=O)(=O)N2CCCC2)c1Cl	Shiga toxin 2 (Escherichia coli O157:H7) (UniProt P09385+P09386)	-7.1%
FC(F)(F)COCCN1CCN(c2ccc3nncn3n2)CC1	Shiga toxin 2 (Escherichia coli O157:H7) (UniProt P09385+P09386)	-42.1%
Cc1ccccc1C(=O)Nc1cnn(CC(=O)NC2CCCC2)c1	Shiga toxin 2 (Escherichia coli O157:H7) (UniProt P09385+P09386)	-6.1%
O=C(Cc1ccc2c(c1)OCCO2)NCCc1nnc2n1CCC2	Shiga toxin 2 (Escherichia coli O157:H7) (UniProt P09385+P09386)	15.8%
Cc1occc1C(=O)N1CCC2(CCN(Cc3nccs3)C2)CC1	Shiga toxin 2 (Escherichia coli O157:H7) (UniProt P09385+P09386)	-15.8%
COc1cccc(CNc2cnn(C)c(=O)c2Cl)c1	Shiga toxin 2 (Escherichia coli O157:H7) (UniProt P09385+P09386)	11.4%

###

# targetEntity: Aspartate--tRNA(Asp/Asn) ligase (Mycobacterium tuberculosis (strain ATCC 25618 / H37Rv)) (UniProt P9WFW3); note: in the data most compounds retested in dose-response had high values
# assayInfo: Assay for Asp RNA synthetase-1 from Mycobacterium tuberculosis
# Assay type: functional
# Set-up: scale not given: direction of the effect not stated beside the values
# statedConditions: 30 µM
measuredProperty: Percent Effect

compound	result
Cc1ccc([C@]2(O)CC[C@H]3CN(Cc4cccc(Cl)c4Cl)C[C@H]32)nc1	7.16%
CCn1cnnc1CNC(=O)N1CCN(Cc2ccccc2)CC1	-0.692%
Cc1ccc(CN2CC[C@H]3OCC[C@@H](C(=O)NC4CC4)[C@@H]3C2)o1	4.6%
CN(C)CC1CN(CCOc2cccc(C#N)c2)CCO1 (configuration not stated)	-0.815%
Cc1cc(C(C)NC(=O)N2CCC(n3cncn3)CC2)c(C)s1 (configuration not stated)	0.6%
CCOC(=O)NC(CNC(=O)c1ncccn1)CC(C)C (configuration not stated)	6.25%
Cc1cc(CN2C[C@@H]3COC[C@]3(CN(C)C)C2)no1	-2.03%
CC(C)c1nc(C2CCCN2C(=O)c2nccnc2N)no1 (configuration not stated)	-5.36%
Cc1nc(C)n(CC2CCCCN2CC(=O)Nc2ccncc2)n1 (configuration not stated)	-1.82%
O=C(NC1CCS(=O)(=O)C1)c1sccc1-c1ccc(F)cc1 (configuration not stated)	-5.43%
CC(NC(=O)NCCCn1ccnc1)c1ccc2c(c1)OCCCO2 (configuration not stated)	1.46%
CC(=O)N1CCCN(C(=O)NCc2ccccn2)CC1	3.93%
CCS(=O)(=O)N1CCC(c2nnc(CN3CCOCC3)n2C)CC1	-1.39%
CS(=O)(=O)NC1CCc2c(ccc(=O)n2CC2CC2)C1 (configuration not stated)	2.4%
Cc1ccc(CN2CCCn3c(nc(CN4CCCC4)cc3=O)C2)s1	4.32%
CN1CCCC1c1cccc(Cc2ccccc2F)n1 (configuration not stated)	-0.581%
CN(C)C(=O)C1CN(Cc2cscn2)CCN(S(C)(=O)=O)C1 (configuration not stated)	0.521%
Cc1cc(C)c2nc(CN3CCCC(c4cc[nH]n4)C3)cc(O)c2c1 (configuration not stated)	4.05%
CC(C)c1ncc2c(n1)CN(Cc1cccc(C#N)c1)CC2	0.9%
Cc1cccc(-n2cc(C(=O)N3CCCC(n4cccn4)C3)nn2)c1 (configuration not stated)	1.99%
COc1c(CNC2CCCOc3ccccc32)c(C)nn1C (configuration not stated)	-2.86%
CCOc1ncccc1NC(=O)c1cc(C)c(C)s1	-2.03%
Cn1ccc(CN2CCC(NC(=O)NC3CCCCC3)CC2)cc1=O	-0.833%
CC(C)N1CCn2c(nc3cc(C(N)=O)ccc32)C1	0.319%
O=C(NCCn1nc2ccccn2c1=O)c1cccc2[nH]ncc12	-0.633%
CCn1nc(C(C)C)cc1C(=O)NCCCOC	-1.73%
Cn1cnc2c1C(COCC1CC1)CN(Cc1ccsc1)C2 (configuration not stated)	5.14%
FC1(F)CCN(Cc2ccncc2)CC12CCN(Cc1ccccn1)C2 (configuration not stated)	4.66%
CCNC(=O)NC(=O)CNC1(c2noc(C)n2)CCCCC1	0.329%
CCn1ccnc1CN1CCOC(CNc2cccnn2)C1 (configuration not stated)	-0.152%
CCOCC1CN(S(=O)(=O)N(C)C)Cc2cnn(C)c21 (configuration not stated)	-3.4%
Cn1ccnc1CN(CCCO)C1CCCc2ccccc21 (configuration not stated)	3.32%
CN1CCN(C2CCN(CC(=O)NCC(F)(F)F)CC2)C1=O	-5.68%
COc1ccc(C(CO)NC(=O)Nc2cccnc2)cc1 (configuration not stated)	-1.35%
O=C(NCCNc1ncccn1)C1CCN(CC(F)(F)F)CC1	2.17%
CNCC(=O)N1CC(c2cc(Nc3ncccn3)nc(C)n2)C1	-3.19%
CCC(O)CN1CCN(C(=O)c2cccn2Cc2cccs2)CC1 (configuration not stated)	0.685%
CCN1C[C@H]2CCN(C(C)=O)CC[C@H]2S1(=O)=O	-0.319%
Cn1cc(Br)c(=O)c(NS(=O)(=O)c2cc(F)ccc2Cl)c1	-1.26%
c1ccc2oc(N3CCCCC3Cn3cncn3)nc2c1 (configuration not stated)	-2.88%
CC(C)CCNC(=O)c1sccc1N(C)S(=O)(=O)c1ccccc1	5.12%
Cc1cccc(CN2CCc3nnc(CN4CCCC4=O)n3CC2)n1	-2.89%
Cc1cc(NC(=O)CN2CCn3c(nnc3C(C)C)C2)no1	-3.23%
COCCOc1ccc(NC(=O)N2CCCC2c2cc(C)no2)cn1 (configuration not stated)	-5.36%
Cc1nnc(N2CCOC(Cn3cccn3)C2)c(C#N)c1C (configuration not stated)	3.88%
Cn1cc(CCNC(=O)CCc2ccc3c(c2)OCO3)cn1	1.25%
CC(NC(N)=O)C(=O)N(C)CCCc1cc(-c2ccccc2)no1 (configuration not stated)	3.41%

These entries and their values trace back to ChEMBL document CHEMBL3988442.
